Experiment: Human HepG2 cell viability assay in 384 well format
Format: toxicity, cell-based
Parameters: dose 125 nL, time 70.5 hour; concentration not given beside the values
Settings: HepG2 cells, read-out: Inhibition
assayReadout: cytotoxicity at 70.5 h (%)
Number only, in %; omit the unit.

The following molecules have reported results that may help.
1) Cn1nc(C2CCCN(Cc3cccs3)C2)c2nccnc21 (centres undefined)    3.16
2) CC(=O)N1CCC(N2CCOC[C@H]2c2nc(-c3ccc(Cl)s3)c[nH]2)CC1    -2.53
3) CCOCC1CN(C(=O)Cc2ccccn2)Cc2c1cnn2C (centres undefined)    -7.19
4) COCCN1CCC(C(=O)N(C)CCOc2ccc(C)cc2Cl)C1 (centres undefined)    20.7
5) CC1=N[C@@]2(CC[C@@H]3CNC[C@@H]32)C(=O)N1CC(C)C    31.4

Prompt: Recorded cytotoxicity at 70.5 h for `Cc1sc(CS(C)(=O)=O)nc1-c1ccc(Cl)cc1` , please?
Completion: 14.3

Prompt: Name the reported cytotoxicity at 70.5 h value associated with the molecule CC(C)c1nc(C2CCCN2Cc2nnc(C3CCC3)o2)no1 (centres undefined)
Completion: 14.8

Prompt: What value of cytotoxicity at 70.5 h has been reported for the following molecule? O=C(Nc1cc(F)ccc1OCC1CCCO1)c1ccccn1 (centres undefined)
Completion: -8.61

Prompt: Any idea what cytotoxicity at 70.5 h was measured for `CC(C)(O)CCc1cccc(C(=O)N[C@@H](CO)C(N)=O)c1` ?
Completion: 3.89
